These entries and their values trace back to ChEMBL document CHEMBL1811881.

Tgt: 17-beta-hydroxysteroid dehydrogenase type 3 (Homo sapiens) (UniProt P37058)
Sequence (whole entry): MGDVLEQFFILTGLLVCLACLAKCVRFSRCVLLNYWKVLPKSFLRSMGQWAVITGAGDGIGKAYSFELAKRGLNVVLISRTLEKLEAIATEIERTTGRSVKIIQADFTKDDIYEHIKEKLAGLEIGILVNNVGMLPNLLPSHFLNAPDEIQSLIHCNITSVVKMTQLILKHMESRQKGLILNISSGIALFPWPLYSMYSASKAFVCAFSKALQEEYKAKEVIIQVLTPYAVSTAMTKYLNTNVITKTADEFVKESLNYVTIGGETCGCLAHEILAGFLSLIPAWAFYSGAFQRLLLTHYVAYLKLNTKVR
Assay notes: Inhibition of 17Beta-HSD3 expressed in homogenized HEK293 cells assessed as transformation of [14C]-4-androstene-3,17-dione into [14C]-testosterone in presence of NADPH at 0.1 uM
Assay type: cell-based
# inhibition listing for each entry below
Output should be the measured figure followed by the unit it is expressed in.

Please review the following examples before continuing.
C[C@]12CC[C@](O)(CN3CCN(c4ccccc4)CC3)C[C@@H]1CC[C@@H]1[C@@H]2CC[C@]2(C)C(=O)CC[C@@H]12 :: 78%
C[C@@H]1CN(Cc2cccc(C(F)(F)F)c2)[C@@H](C)CN1C[C@@]1(O)CC[C@@]2(C)[C@@H](CC[C@@H]3[C@@H]2CC[C@]2(C)C(=O)CC[C@@H]32)C1 :: 89%
COc1cccc(CN2CCN(C[C@@]3(O)CC[C@@]4(C)[C@@H](CC[C@@H]5[C@@H]4CC[C@]4(C)C(=O)CC[C@@H]54)C3)CC2)c1 :: 83%

Sure, the documented inhibition for C[C@]12CC[C@](O)(CN3CCN(Cc4cccnc4)CC3)C[C@@H]1CC[C@@H]1[C@@H]2CC[C@]2(C)C(=O)CC[C@@H]12 is 33%

Sure, the documented inhibition for C[C@]12CC[C@](O)(CN3CCCCC3)C[C@@H]1CC[C@@H]1[C@@H]2CC[C@]2(C)C(=O)CC[C@@H]12 is 19%

Sure, the documented inhibition for CCN(CC)C[C@@]1(O)CC[C@@]2(C)[C@@H](CC[C@@H]3[C@@H]2CC[C@]2(C)C(=O)CC[C@@H]32)C1 is 10%

Sure, the documented inhibition for CCN(Cc1ccccc1)C[C@@]1(O)CC[C@@]2(C)[C@@H](CC[C@@H]3[C@@H]2CC[C@]2(C)C(=O)CC[C@@H]32)C1 is 85%

Sure, the documented inhibition for C[C@@H]1CN(Cc2cc(C(F)(F)F)cc(C(F)(F)F)c2)[C@@H](C)CN1C[C@@]1(O)CC[C@@]2(C)[C@@H](CC[C@@H]3[C@@H]2CC[C@]2(C)C(=O)CC[C@@H]32)C1 is 74%

Sure, the documented inhibition for COc1ccc(CN2C[C@]3(CC[C@@]4(C)[C@@H](CC[C@@H]5[C@@H]4CC[C@]4(C)C(=O)CC[C@@H]54)C3)OC2=O)cc1 is 84%

Sure, the documented inhibition for C[C@]12CC[C@](O)(CN3CCN(C(=O)c4ccc(C(F)(F)F)cc4)CC3)C[C@@H]1CC[C@@H]1[C@@H]2CC[C@]2(C)C(=O)CC[C@@H]12 is 84%

Sure, the documented inhibition for CN(Cc1ccccc1)C[C@@]1(O)CC[C@@]2(C)[C@@H](CC[C@@H]3[C@@H]2CC[C@]2(C)C(=O)CC[C@@H]32)C1 is 79%

Sure, the documented inhibition for C[C@]12CC[C@](O)(CN3CCN(Cc4cc(C(F)(F)F)ccc4C(F)(F)F)CC3)C[C@@H]1CC[C@@H]1[C@@H]2CC[C@]2(C)C(=O)CC[C@@H]12 is 85%

Sure, the documented inhibition for C[C@@H]1CN(C(=O)c2ccc(C(F)(F)F)cc2)[C@@H](C)CN1C[C@@]1(O)CC[C@@]2(C)[C@@H](CC[C@@H]3[C@@H]2CC[C@]2(C)C(=O)CC[C@@H]32)C1 is 91%

Sure, the documented inhibition for Cc1cccc(OCCN2C[C@]3(CC[C@@]4(C)[C@@H](CC[C@@H]5[C@@H]4CC[C@]4(C)C(=O)CC[C@@H]54)C3)OC2=O)c1 is 85%

Sure, the documented inhibition for C[C@@H]1CN(Cc2ccc(C(F)(F)F)cc2C(F)(F)F)[C@@H](C)CN1C[C@@]1(O)CC[C@@]2(C)[C@@H](CC[C@@H]3[C@@H]2CC[C@]2(C)C(=O)CC[C@@H]32)C1 is 71%

====

Tgt: 17-beta-hydroxysteroid dehydrogenase type 3 (Homo sapiens) (UniProt P37058)
Assay notes: Inhibition of 17Beta-HSD3 expressed in homogenized HEK293 cells assessed as transformation of [14C]-4-androstene-3,17-dione into [14C]-testosterone in presence of NADPH at 0.1 uM
Format: cell-based
Experimental readout: inhibition (%)
Provide the reading as a plain figure in %.

C[C@]12CC[C@@]3(C[C@@H]1CC[C@@H]1[C@@H]2CC[C@]2(C)C(=O)CC[C@@H]12)CN(CCO)C(=O)O3 :: 9

Sure, the documented inhibition for C[C@@H]1CN(Cc2ccc(C(F)(F)F)cc2)[C@@H](C)CN1C[C@@]1(O)CC[C@@]2(C)[C@@H](CC[C@@H]3[C@@H]2CC[C@]2(C)C(=O)CC[C@@H]32)C1 is 87

Sure, the documented inhibition for C[C@]12CC[C@](O)(CN3CCC(Cc4ccccc4)CC3)C[C@@H]1CC[C@@H]1[C@@H]2CC[C@]2(C)C(=O)CC[C@@H]12 is 82

Sure, the documented inhibition for C[C@@H]1CN(Cc2cccc(Cl)c2)[C@@H](C)CN1C[C@@]1(O)CC[C@@]2(C)[C@@H](CC[C@@H]3[C@@H]2CC[C@]2(C)C(=O)CC[C@@H]32)C1 is 84

Sure, the documented inhibition for C[C@]12CC[C@](O)(CN3CCN(Cc4ccccc4)CC3)C[C@@H]1CC[C@@H]1[C@@H]2CC[C@]2(C)C(=O)CC[C@@H]12 is 72

Sure, the documented inhibition for Cc1ccc(CN2C[C@]3(CC[C@@]4(C)[C@@H](CC[C@@H]5[C@@H]4CC[C@]4(C)C(=O)CC[C@@H]54)C3)OC2=O)cc1 is 81

Sure, the documented inhibition for C[C@]12CC[C@](O)(CN3CCN(C(=O)c4cccc(C(F)(F)F)c4)CC3)C[C@@H]1CC[C@@H]1[C@@H]2CC[C@]2(C)C(=O)CC[C@@H]12 is 92

Sure, the documented inhibition for CCCCN(CCCC)C[C@@]1(O)CC[C@@]2(C)[C@@H](CC[C@@H]3[C@@H]2CC[C@]2(C)C(=O)CC[C@@H]32)C1 is 70

====

Tgt: UniProt P37058
Sequence (whole entry): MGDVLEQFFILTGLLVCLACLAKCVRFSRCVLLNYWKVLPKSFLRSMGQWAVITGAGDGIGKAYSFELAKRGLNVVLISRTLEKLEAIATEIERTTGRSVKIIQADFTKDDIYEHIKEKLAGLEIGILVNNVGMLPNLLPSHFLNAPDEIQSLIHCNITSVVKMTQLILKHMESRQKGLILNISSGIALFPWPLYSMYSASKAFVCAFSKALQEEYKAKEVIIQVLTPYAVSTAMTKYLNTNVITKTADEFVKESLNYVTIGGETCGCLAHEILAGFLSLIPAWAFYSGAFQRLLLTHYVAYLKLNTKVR
Assay notes: Inhibition of 17Beta-HSD3 expressed in homogenized HEK293 cells assessed as transformation of [14C]-4-androstene-3,17-dione into [14C]-testosterone in presence of NADPH at 0.01 uM
Assay type: cell-based
# inhibition listing for each entry below
Provide the reading as a plain figure in %.

Please review the following examples before continuing.
C[C@]12CC[C@](O)(CN3CCC(N4CCCCC4)CC3)C[C@@H]1CC[C@@H]1[C@@H]2CC[C@]2(C)C(=O)CC[C@@H]12 :: 0
C[C@@H]1CN(Cc2cccc(SC(F)(F)F)c2)[C@@H](C)CN1C[C@@]1(O)CC[C@@]2(C)[C@@H](CC[C@@H]3[C@@H]2CC[C@]2(C)C(=O)CC[C@@H]32)C1 :: 18
C[C@]12CC[C@](O)(CN3CCN(S(=O)(=O)c4ccccc4C(F)(F)F)CC3)C[C@@H]1CC[C@@H]1[C@@H]2CC[C@]2(C)C(=O)CC[C@@H]12 :: 45
C[C@]12CC[C@](O)(CN3CCN(Cc4ccccc4)CC3)C[C@@H]1CC[C@@H]1[C@@H]2CC[C@]2(C)C(=O)CC[C@@H]12 :: 35

Sure, the documented inhibition for CCN(CC)C[C@@]1(O)CC[C@@]2(C)[C@@H](CC[C@@H]3[C@@H]2CC[C@]2(C)C(=O)CC[C@@H]32)C1 is 0

Sure, the documented inhibition for C[C@]12CC[C@](O)(CN3CCN(Cc4cccnc4)CC3)C[C@@H]1CC[C@@H]1[C@@H]2CC[C@]2(C)C(=O)CC[C@@H]12 is 10
